Assay: in vitro
Type: cell-based, human
Details: human, hl60 cells, 10.0 μg/ml; read-out: Suppression
Protocol: Cytotoxicity to human tumor cell lines was examined as follows: Cells of human cell lines, K562, MOLT4, U937, HL60, KATOIII, KB, PC-6, PC-14 and CCRF-CEM were separately suspended to the concentration of 2×10^5 cells/ml in the RPMI1640 culture medium supplemented with 20% FCS. Fifty μl of this suspension was added to each well of 96-well microculture plates to which 50 μl of the test solution had been added. […]
Measured cytotoxicity at 72 h of individual entries
// units = %; emit number, no label

Example molecules with recorded cytotoxicity at 72 h:
CCCCCCC(=O)CCCCCC/C=C/CC1OC(=O)C(N)(CO)C1O (centres unmarked)	21.1
CCCCCCC(O)CCCCCCCCCC1OC(=O)C(N)(CO)C1O (centres unmarked)	22.3
CCCCCCC(O)CCCCCCCCCC(O)C(O)C(N)(CO)C(=O)O (centres unmarked)	20.9

Qu. Given the entry CCCCCCC(=O)CCCCCCCCCC(O)C(O)C(N)(CO)C(=O)O (centres unmarked) , report its measured cytotoxicity at 72 h.
Ans. 20.9

Qu. Record: CCCCCCC(=O)CCCCCCCCCC1OC(=O)C(N)(CO)C1O (centres unmarked)
Ans. 18

---

Assay: cytotoxicity to tumor cell line MOLT4
Assay type: cell-based, human
Settings: human, molt4 cells, 0.1 μg/ml; read-out: Suppression
Measured cytotoxicity at 72 h of individual entries
// units = %; emit number, no label

Example compounds with recorded cytotoxicity at 72 h:
CCCCCCC(=O)CCCCCC/C=C/CC1OC(=O)C(CO)(NC(C)=O)C1O (stereo not drawn)	0
CCCCCCC(O)CCCCCCCCCC(O)C(O)C(N)(CO)C(=O)O (stereo not drawn)	23.4
CCCCCCC(=O)CCCCCCCCCC1OC(=O)C(N)(CO)C1O (stereo not drawn)	26.2

Qu. Given the entry CCCCCCC(O)CCCCCCCCCC1OC(=O)C(N)(CO)C1O (stereo not drawn) , report its measured cytotoxicity at 72 h.
Ans. 0

Qu. Record: CCCCCCC(=O)CCCCCC/C=C/CC1OC(=O)C(N)(CO)C1O (stereo not drawn)
Ans. 14

Qu. Record: CCCCCCC(O)CCCCCC/C=C/CC1OC(=O)C(N)(CO)C1O (stereo not drawn)
Ans. 2.1

Qu. Record: CCCCCCC(=O)CCCCCC/C=C/CC(O)C(O)C(N)(CO)C(=O)O (stereo not drawn)
Ans. 9.4

Qu. Record: CCCCCCC(O)CCCCCC/C=C/CC(O)C(O)C(N)(CO)C(=O)O (stereo not drawn)
Ans. 0.8

Qu. Record: CCCCCCC(=O)CCCCCCCCCC(O)C(O)C(N)(CO)C(=O)O (stereo not drawn)
Ans. 4.7

---

Experiment: cytotoxicity to tumor cell line PC-6
Assay type: cell-based, human
Conditions: human, pc-6 cells, 100.0 μg/ml; read-out: Suppression
TEST_READOUT: cytotoxicity at 72 h (%)
// units = %; emit number, no label

CCCCCCC(=O)CCCCCC/C=C/CC(O)C(O)C(N)(CO)C(=O)O (centres unmarked)	100

// next item, cytotoxicity at 72 h requested
Qu. Given the entry CCCCCCC(=O)CCCCCC/C=C/CC1OC(=O)C(N)(CO)C1O (centres unmarked) , report its measured cytotoxicity at 72 h.
Ans. 95.2
